biological target: Gal(b1-3)[Neu5Ac(b2-6)]GalNAc; assay: glycan array binding signal (z-score within array); higher = stronger binding; settings: glycan notation: IUPAC condensed, linker removed
The sample as a whole holds a higher share of the strongest signals than the screen did.
Measured quantity: glycan array binding signal (z-score)
Lab note: jot the number down without any unit.

Query :: Endpoint output: glycan array binding signal (z-score) of Gal 3 (Homo sapiens), P17931 (protein) MADNFSLHDALSGSGNPNPQGWPGAWGNQPAGAGGYPGASYPGAYPGQAPPGAYPGQAPPGAYHGAPGAYPGAPAPGVYPGPPSGPGAYPSSGQPSAPGAYPATGPYGAPAGPLIVPYNLPLPGGVVPRMLITILGTVKPNANILDFQRGNDVAFHFNPRFNENNRRVIVCNTKLDNNWGREERQSVFPFESGKPFKIQVLVEPDHFKVAVNDAHLLQYNHRVKKLNEISKLGISGDIDLTSASYTMI . Value?
Result :: -0.386

Query :: Given the binder Ovorubin (Pomacea canaliculata), J7I2T6 (protein) MFVATSLLLAIATLVVRASPHNYLIMDIEPPKSVSERDILNLLSPLQVKHSFRVTGSTRLLIVIRLDAQSYEKLDEITVPGKVEVIPAVNMADTMERCGVSWPRVELTDDNVTLFESESTLTDVTKEQLKAMLIGYGEHMSGLLQAHRFEYYQAAGATPHRHFVFVNSVPDEIEVFGREGVDIWGGPGEFVVKPQYVTRI , what is its reported glycan array binding signal (z-score)?
Result :: -0.862

Query :: Which glycan array binding signal (z-score) value belongs to rCNL (Clitocybe nebularis), B2ZRS9 (protein) SITPGTYNITNVAYTNRLIDLTGSNPAENTLIIGHHLNKTPSGYGNQQWTLVQLPHTTIYTMQAVNPQSYVRVRDDNLVDGAALVGSQQPTPVSIESAGNSGQFRIKIPNLGLALTLPSDANSTPIVLGEVDETSTNQLWAFESVSAV ?
Result :: -0.305

Query :: Return reported glycan array binding signal (z-score); argument: Gal 2 (Homo sapiens), P05162 (protein) MTGELEVKNMDMKPGSTLKITGSIADGTDGFVINLGQGTDKLNLHFNPRFSESTIVCNSLDGSNWGQEQREDHLCFSPGSEVKFTVTFESDKFKVKLPDGHELTFPNRLGHSHLSYLSVRGGFNMSSFKLKE
Result :: -0.237

Query :: What value of measured glycan array binding signal (z-score) is listed for MAA (Maackia amurensis), P0DKL3 (protein) MATSNSKPTQVLLATFLTFFFLLLNNVNSSDELSFTINNFVPNEADLLFQGEASVSSTGVLQLTRVENGQPQKYSVGRALYAAPVRIWDNTTGSVASFSTSFTFVVKAPNPDITSDGLAFYLAPPDSQIPSGSVSKYLGLFNNSNSDSSNQIVAVELDTYFAHSYDPWDPNYRHIGIDVNGIESIKTVQWDWINGGVAFATITYLAPNKTLIASLVYPSNQTTFSVAASVDLKEILPEWVRVGFSAATGYPTEVETHDVLSWSFTSTLEANCDAATENNVHIARYTA ?
Result :: -0.219

Query :: Consider the binder shown here: SynCAM (Mus musculus) (protein) MASAVLPSGSQCAAAAAVAAAAAPPGLRLRLLLLLLSAAALIPTGDGQNLFTKDVTVIEGEVATISCQVNKSDDSVIQLLNPNRQTIYFRDFRPLKDSRFQLLNFSSSELKVSLTNVSISDEGRYFCQLYTDPPQESYTTITVLVPPRNLMIDIQKDTAVEGEEIEVNCTAMASKPATTIRWFKGNKELKGKSEVEEWSDMYTVTSQLMLKVHKEDDGVPVICQVEHPAVTGNLQTQRYLEVQYKPQVHIQMTYPLQGLTREGDAFELTCEAIGKPQPVMVTWVRVDDEMPQHAVLSGPNLFINNLNKTDNGTYRCEASNIVGKAHSDYMLYVYDPPTTIPPP What is its recorded glycan array binding signal (z-score)?
Result :: -0.562

Query :: Using the record for Tamarinin (protein) CDDSARAGNIVVYWGQGGSDNSEGSLKEACKSGHYNMIVLQQLIVYDDGRDPDLNLGAHCSDCTKLEEQIKYCQNKDIKILLQIGQVVPTQEDVKDVTKNLSEYLLKNFFSGKSGPLGEVYLNGIDIASVPEGNNLKFDELVEALNDSSTERRIYLSASPLCVYPDYYLNKAIQTEKLDFLFVQFFYQNPCIYTEGNPENLFEAMKTWTKNVPESMIFMALPATPNLDGYIPPRVLNKEILPAVSEASNFAGVMIFDRYFDRFRKYSSKIK , report its glycan array binding signal (z-score).
Result :: -0.455

Query :: What value of glycan array binding signal (z-score) has been reported for the following binder? CM2 (Cordyceps militaris) (protein) MEIAEQNVGKSCAIVNLIPPKEGSNIWTAKQVTIARNLPPNRGTGRHQIDWSFGPVKVTGYVDTTNWEIGVTVSIMGIDLGTVYGNLRDGVVLNVDLFLAKGQVRFYLKNGNEVWVHLSVEIRFDGKFEGDYKIITV
Result :: 0.422

Query :: Look up glycan array binding signal (z-score) for this binder: HPA (Helix pomatia), Q575S3 (protein) MWAHLTGLLLICALSLSAAQRAQTGEIDCGSDSSWPKDPSDNPNRDNTREIVKHVTFSPQFCREPKVILSVTTLDAEHTKNLRYEARLKSVSPSGLSASCYSWHDGTIYRMKLSWLAVED
Result :: -0.268
